B1: HDV Ribozyme (parent)
chain: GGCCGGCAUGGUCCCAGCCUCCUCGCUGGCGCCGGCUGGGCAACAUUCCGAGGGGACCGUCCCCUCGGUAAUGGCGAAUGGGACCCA

Variants of: B1
protocol_text: self-cleavage, relative activity (ratio to wild type); higher = more cleavage; co-transcriptional
Record form. Attribute: self-cleavage. Fill in for each entry.
Give bare numbers.

Solved cases (2 shown):
[
  {
    "sequence_input": "GGCCGGCAUGAUCCCAGCCUCCUCGCUGGCGCCGGCUGGGCAACAUUCCGAGGGGACCGUCCCCUAGGUAAUGGCGAAUGGGACCCA [G11A C66A]",
    "self-cleavage": 0.308
  },
  {
    "sequence_input": "GGCCGGCAUGGUCCCAGCCUCCUCGCUGGCGCCGGCUGGGCAACAUUACGAGGGGACCGUCCCCUCGGUAAUGGCGAAUGGGACCCC [C48A A87C]",
    "self-cleavage": 1.16
  }
]

Below are some variants; for each one, tell me its self-cleavage.
1. GGCCGGCAUGGUCCCAUCCUCCUCGCUGGCGACGGCUGGGCAACAUUCCGAGGGGACCGUCCCCUCGGUAAUGGCGAAUGGGACCCA [G17U C32A]
2. GGCCGGCAUGGUCCCAGCCUCCUCGCUGGCGCCGGCUGGGCAACAUUCCGAGGGGACCGUCCCCUCGGUAAUGGGGAAUGGGGCCCA [C75G A83G]
3. GGCCGGCAUGGUCCUAGCCUCCUCGCUGGCGCCGGCUGGGCAACAUUCCGUGGGGACCGUCCCCUCGGUAAUGGCGAAUGGGACCCA [C15U A51U]
4. GGCCGGCAUGGUCCCAGCCUCCUCGCUGGCGCCGGCUGAGCAACAGUCCGAGGGGACCGUCCCCUCGGUAAUGGCGAAUGGGACCCA [G39A U46G]

-- reply
0.136
0.153
1.08
0.0923

Below are some variants; for each one, tell me its self-cleavage.
1. GGCCGGCAUGGUCCCAGCCUCCUCGCUGGCGCCGGCUGGGCAACAUUCCGUGAGGACCGUCCCCUCGGUAAUGGCGAAUGGGACCCA [A51U G53A]
2. GGCCGGCAUGGUCCCAGCCUCCUUGCUGGCGCCGGCUGGGCCACAUUCCGAGGGGACCGUCCCCUCGGUAAUGGCGAAUGGGACCCA [C24U A42C]

-- reply
1. 0.927
2. 0.125

Below are some variants; for each one, tell me its self-cleavage.
1. GGCCGGCAUGGUCCCAGCCCCCUCGCUGGCGCCGGCUGGGCAACAUUCCGAGGGGACCGUCGCCUCGGUAAUGGCGAAUGGGACCCA [U20C C62G]
2. GGCCGGCAUGGUCCAAGCCUCCUCGCUGGCGCCGGCUGGGCAACAUUCCGAGGGGACCGUCCCCUCGCUAAUGGCGAAUGGGACCCA [C15A G68C]

-- reply
1: 0.0665; 2: 0.458
